- assayed_system: human P2X7 channel (Homo sapiens, UniProt Q99572)
- assay_overview: human P2X7 channel assay by automated patch-clamp (QPatch 16X)
- experimental_conditions: HEK-293 cells expressing P2X7; current evoked by 100 microM BzATP; whole-cell, held at -80 mV; read-out: human Q-Patch (activity range)
measure_name: IC50

As a guide, the following entries are already answered.
>>> value("Cn1nc(CC2CCCCC2)n(Cc2c(F)cccc2Cl)c1=O")
"100 to 1000 nM"
>>> value("Cn1nc(CC2CCCCC2)n(Cc2ccccc2C(F)(F)F)c1=O")
"100 to 1000 nM"
>>> value("Cn1nc(Cc2ccc(F)cc2Cl)n(CCC2CCC(C)(C)CC2)c1=O")
"1000 to 10000 nM"
>>> value("Cn1nc(Cc2ccccc2F)n(CC2CCCCC2(C)C)c1=O (stereo not drawn)")
"1000 to 10000 nM"

Task: Data request, read-out IC50, for O=c1n(CC(F)(F)F)nc(Cc2c(F)cccc2Cl)n1CC1CCCCCC1
Result: 10 to 100 nM

Task: Quick check: IC50 of Cn1nc(Cc2ccccc2Cl)n(CC2CCCCCC2)c1=O ?
Result: 100 to 1000 nM

Task: Please report the recorded IC50 for Cn1nc(Cc2c(F)cccc2Cl)n(CC2CCCCCC2)c1=O .
Result: < 10 nM

Task: GET /values?readout=IC50&item= Cn1nc(Cc2ccccc2F)n(CC2CCC3(CC2)CC3)c1=O
Result: 100 to 1000 nM

Task: Quick one: IC50 for Cn1nc(Cc2c(F)cccc2Cl)n(CC2CC3C(C2)C3(F)F)c1=O (stereo not drawn) ?
Result: 10 to 100 nM

---

pIC50 reference
- assayed_system: humanP2X7 (Homo sapiens, UniProt Q99572)
- assay_overview: P2X7 channel calcium-influx assay (Fluo-8, FLIPR TETRA), human P2X7
- experimental_conditions: HEK-293 cells stably transfected with P2X7; Bz-ATP at EC80; low divalent cation buffer; read-out: humanP2X7 (activity range)
pIC50: −log10 of the molar value.

>>> value("Cn1nc(Cc2ccccc2F)n(CC2CCC(C(F)(F)F)CC2)c1=O (centres unmarked) [Example 51]")
"6.00 to 6.70"

Proceed to the following item.
Task: Give its pIC50 value. Item: Cn1nc(Cc2ccc(F)cc2Cl)n(CC2CCC(C(F)(F)F)CC2)c1=O (centres unmarked) [Example 52]
Result: 6.00 to 6.70

---

- assayed_system: mouseP2X7 (Mus musculus, UniProt Q9Z1M0)
- Sequence (Q9Z1M0 whole entry): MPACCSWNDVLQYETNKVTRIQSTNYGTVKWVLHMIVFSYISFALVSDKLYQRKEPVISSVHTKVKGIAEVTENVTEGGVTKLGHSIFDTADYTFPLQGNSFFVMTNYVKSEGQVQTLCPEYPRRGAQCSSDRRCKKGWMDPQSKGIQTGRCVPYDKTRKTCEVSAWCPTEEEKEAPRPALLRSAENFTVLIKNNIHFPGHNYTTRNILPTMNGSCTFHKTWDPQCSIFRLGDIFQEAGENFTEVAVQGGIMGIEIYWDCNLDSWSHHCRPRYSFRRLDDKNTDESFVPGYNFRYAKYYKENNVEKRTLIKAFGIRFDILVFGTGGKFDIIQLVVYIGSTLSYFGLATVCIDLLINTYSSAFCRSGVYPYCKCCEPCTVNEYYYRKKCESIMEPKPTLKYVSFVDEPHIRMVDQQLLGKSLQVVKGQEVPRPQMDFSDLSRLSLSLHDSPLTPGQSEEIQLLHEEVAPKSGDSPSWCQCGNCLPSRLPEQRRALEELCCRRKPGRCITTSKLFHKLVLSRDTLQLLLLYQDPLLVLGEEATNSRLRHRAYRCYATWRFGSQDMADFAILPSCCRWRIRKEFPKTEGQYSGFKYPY
- assay_overview: P2X7 channel calcium-influx assay (Fluo-8, FLIPR TETRA), mouse P2X7
- experimental_conditions: HEK-293 cells stably transfected with P2X7; Bz-ATP at EC80; low divalent cation buffer; read-out: mouseP2X7 (activity range)
pIC50: −log10 of the molar value.
measure_name: pIC50

Sample records with pIC50:
>>> value("Cn1nc(Cc2ccccc2Cl)n(CC2CCCCCC2)c1=O")
"5.00 to 6.00"
>>> value("Cn1nc(Cc2c(F)cccc2Cl)n(CCC2CCC(F)(F)CC2)c1=O")
"5.00 to 6.00"

Task: So what does the record say about pIC50 for Cn1nc(Cc2ccc(F)cc2Cl)n(CC2CCC(C(F)(F)F)CC2)c1=O (centres unmarked) ?
Result: 5.00 to 6.00

Task: Report pIC50 for Cn1nc(Cc2ccccc2C(F)(F)F)n(CC2CCCCCC2)c1=O please.
Result: 5.00 to 6.00

Task: Give the measured pIC50 of O=c1n(CC2CC2)nc(Cc2c(F)cccc2Cl)n1CC1CCC(F)(F)CC1 .
Result: > 6.70

---

- assayed_system: humanP2X7 (Homo sapiens, UniProt Q99572)
- Sequence (Q99572 1-595): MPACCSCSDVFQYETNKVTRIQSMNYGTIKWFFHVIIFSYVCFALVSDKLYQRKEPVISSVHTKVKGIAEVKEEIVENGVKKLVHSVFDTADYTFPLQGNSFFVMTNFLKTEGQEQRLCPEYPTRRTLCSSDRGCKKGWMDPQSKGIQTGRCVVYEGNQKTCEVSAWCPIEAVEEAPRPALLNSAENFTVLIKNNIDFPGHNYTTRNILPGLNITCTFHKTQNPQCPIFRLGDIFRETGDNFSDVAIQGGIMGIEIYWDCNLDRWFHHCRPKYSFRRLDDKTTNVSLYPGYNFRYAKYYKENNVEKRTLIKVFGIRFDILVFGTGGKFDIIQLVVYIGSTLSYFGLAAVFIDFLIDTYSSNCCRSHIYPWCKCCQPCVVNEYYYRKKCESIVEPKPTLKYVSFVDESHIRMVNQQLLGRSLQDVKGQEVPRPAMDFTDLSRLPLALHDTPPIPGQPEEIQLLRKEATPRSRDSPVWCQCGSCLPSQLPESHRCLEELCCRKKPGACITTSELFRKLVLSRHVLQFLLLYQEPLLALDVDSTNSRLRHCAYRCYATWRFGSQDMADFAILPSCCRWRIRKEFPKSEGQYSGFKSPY
- assay_overview: P2X7 channel calcium-influx assay (Fluo-8, FLIPR TETRA), human P2X7
- experimental_conditions: HEK-293 cells stably transfected with P2X7; Bz-ATP at EC80; low divalent cation buffer; read-out: humanP2X7 (activity range)
measure_name: IC50

Example cases with answers are listed next.
>>> value("Cn1nc(Cc2c(F)cccc2Cl)n(CC2(C)CCCCCC2)c1=O [Example 56]")
"1000 to 10000 nM"
>>> value("Cn1nc(CC2CCCCCC2)n(Cc2c(F)cccc2Cl)c1=O [Example 59]")
"200 to 1000 nM"
>>> value("Cn1nc(Cc2c(F)cccc2Cl)n(CC2CCCCC2)c1=O [Example 2]")
"200 to 1000 nM"

Task: Item under review: CCn1nc(Cc2ccccc2Cl)n(CC2CCCCCC2)c1=O [Example 64] . Reported IC50?
Result: < 200 nM

---

# IC50 listing for each entry below
- assayed_system: mouseP2X7 (Mus musculus, UniProt Q9Z1M0)
- assay_overview: P2X7 channel calcium-influx assay (Fluo-8, FLIPR TETRA), mouse P2X7
- experimental_conditions: HEK-293 cells stably transfected with P2X7; Bz-ATP at EC80; low divalent cation buffer; read-out: mouseP2X7 (activity range)

Illustrative cases are given below, each with its answer.
>>> value("CCn1nc(CC2CCCCCC2)n(Cc2c(F)cccc2Cl)c1=O")
"1 to 10 µM"
>>> value("Cn1nc(Cc2c(F)cccc2Cl)n(CCN2CCOCC2)c1=O")
"10 to 30 µM"
>>> value("Cn1nc(Cc2c(F)cccc2Cl)n(CCO)c1=O")
"10 to 30 µM"

With those in mind, consider the next compound.
Task: Consider the compound shown here: Cn1nc(Cc2ccccc2C(F)(F)F)n(CCC2CCC(F)(F)CC2)c1=O What is its recorded IC50?
Result: 1 to 10 µM

---

- assayed_system: mouseP2X7 (Mus musculus)
- assay_overview: P2X7 channel calcium-influx assay (Fluo-8, FLIPR TETRA), mouse P2X7
- experimental_conditions: HEK-293 cells stably transfected with P2X7; Bz-ATP at EC80; low divalent cation buffer; read-out: mouseP2X7 (activity range)
pIC50: −log10 of the molar value.
measure_name: pIC50

The following molecules have reported results that may help.
>>> value("Cn1nc(Cc2ccc(F)cc2Cl)n(Cc2ccc(F)cc2)c1=O [Example 8]")
"5.00 to 6.00"
>>> value("CCn1nc(Cc2c(F)cccc2Cl)n(CC2CCC(F)(F)C2)c1=O (stereo not drawn) [Example 65]")
"4.52 to 5.00"
>>> value("O=c1n(CCC(F)(F)F)nc(Cc2c(F)cccc2Cl)n1CC1CCC(F)(F)CC1 [Example 57]")
"> 6.70"
>>> value("Cn1nc(Cc2ccccc2F)n(CCC2CCC(F)(F)CC2)c1=O [Example 46]")
"5.00 to 6.00"
>>> value("Cn1nc(Cc2ccccc2C(F)(F)F)n(CC2CCC(F)(F)C2)c1=O (stereo not drawn) [Example 19]")
"4.52 to 5.00"
>>> value("Cn1nc(Cc2ccc(F)cc2Cl)n(CC2CCC3(CC2)CC3)c1=O [Example 35]")
"5.00 to 6.00"

Task: Entry Cc1ncccc1Cn1c(CC2CCCCC2)nn(C)c1=O [Example 31] has what pIC50?
Result: 4.52 to 5.00

Task: What value of measured pIC50 is listed for Cn1nc(Cc2c(F)cccc2Cl)n(CC2CCC(C(F)(F)F)CC2)c1=O (stereo not drawn) [Example 7] ?
Result: 6.00 to 6.70

Task: Which value of pIC50 has been reported for CN1CCCCC1Cn1c(Cc2c(F)cccc2Cl)nn(CC(F)(F)F)c1=O (stereo not drawn) [Example 68] in the records?
Result: 5.00 to 6.00

---

- assayed_system: human P2X7 channel (Homo sapiens)
- assay_overview: human P2X7 channel assay by automated patch-clamp (QPatch 16X)
- experimental_conditions: HEK-293 cells expressing P2X7; current evoked by 100 microM BzATP; whole-cell, held at -80 mV; read-out: human Q-Patch (activity range)
measure_name: IC50

These recorded examples may help you get a feel for the data.
>>> value("Cn1nc(Cc2ccc(F)cc2Cl)n(CC2CCC(C(F)(F)F)CC2)c1=O (stereo not shown)")
"0.1 to 1 µM"
>>> value("Cn1nc(Cc2ccccc2C(F)(F)F)n(CC2CCCCC2)c1=O")
"0.1 to 1 µM"
>>> value("Cn1nc(Cc2c(F)cccc2Cl)n(CCN2CCOCC2)c1=O")
"1 to 10 µM"
>>> value("Cn1nc(Cc2c(F)cccc2Cl)n(CC2CCCO2)c1=O (stereo not shown)")
"1 to 10 µM"
>>> value("Cn1nc(Cc2c(F)cccc2Cl)n(CCC2CCC(F)(F)CC2)c1=O")
"0.01 to 0.1 µM"
>>> value("CCn1nc(Cc2c(F)cccc2Cl)n(CC2CCC(F)(F)CC2)c1=O")
"0.01 to 0.1 µM"

Task: What value of IC50 has been reported for the following compound? CCn1nc(Cc2c(F)cccc2Cl)n(CC2CCC(F)(F)C2)c1=O (stereo not shown)
Result: 1 to 10 µM

Task: Give its IC50 value. Item: Cn1nc(Cc2c(F)cccc2Cl)n(CCN2CCOCC2(C)C)c1=O
Result: 1 to 10 µM

Task: Record request: IC50 value, item Cn1nc(Cc2c(F)cccc2Cl)n(CCO)c1=O
Result: 1 to 10 µM

Task: May I ask what IC50 has been recorded for Cn1nc(Cc2ccccc2C(F)(F)F)n(CC2CCCCCC2)c1=O ?
Result: 0.1 to 1 µM

Task: Using the record for CN1CCCCC1Cn1c(Cc2c(F)cccc2Cl)nn(C)c1=O (stereo not shown) , report its IC50.
Result: 1 to 10 µM

Task: Quick one: IC50 for Cn1nc(Cc2ccccc2F)n(CC2CCCCCC2)c1=O ?
Result: 0.1 to 1 µM

Task: Item Cn1nc(Cc2c(F)cccc2Cl)n(CC2CCC3(CC2)CC3)c1=O has what recorded IC50?
Result: < 0.01 µM

Task: Look up IC50: CN1CCCCC1Cn1c(Cc2c(F)cccc2Cl)nn(CC(F)(F)F)c1=O (stereo not shown)
Result: 1 to 10 µM
